measure.name: melting point

compound	result
Nc1cccc(CN2CCC(CO)CC2)c1	89 to 91 °C
Cc1nc(Cl)c2c3c(sc2n1)CCCCC3	43 to 47 °C
ON=Cc1ccc(OCc2cccnc2)cc1	187 to 189 °C
O=S(=O)(c1ccc(S)nc1)N1CCN(Cc2ccccc2)CC1	169 to 171 °C
O=C(Nc1ccccc1I)C(F)(F)F	105 to 107 °C
COc1cc(C=O)cc(Cl)c1OC(F)F	75 to 77 °C
Oc1ccccc1OCc1ccc(F)cc1	55 to 57 °C
CN(c1ccc(OCC(=O)O)cc1)S(=O)(=O)c1cccs1	145 to 147 °C
Cc1cc(O)nc(CCl)n1	147 to 149 °C
O=C1CC2(CCOCC2)CN1	132 to 134 °C
CC(NC(=O)CCl)c1ccccc1 (centres undefined)	75 to 77 °C
O=C1CCC(=O)N1c1ncc(Br)s1	150 to 152 °C
NNC(=O)Cc1ccc2ccccc2c1	189 to 191 °C
Nc1ccccc1-c1ncc[nH]1	132 to 134 °C
Cn1cc(S(=O)(=O)N2CCOCC2)cc1C(=O)O	245 to 247 °C
COc1ccccc1-n1cnnc1S	204 to 206 °C
CCc1[nH]nc(C(=O)O)c1[N+](=O)[O-]	149 to 151 °C
S=C1Cc2ccccc2N1	146 to 148 °C
Cn1cc(C=O)nn1	103 to 105 °C
Cn1cc(C=O)c(-c2cccs2)n1	64 to 66 °C
CC(C)C(=O)N1CCCCC1C(=O)O (centres undefined)	123 to 125 °C
COC(=O)Cc1c(C(=O)OC)sc(N)c1C(=O)OC	178 to 180 °C
Nc1ncc(-c2cccc(F)c2)s1	168 to 170 °C
COc1ccccc1Nc1ccc([N+](=O)[O-])cc1N	149 to 151 °C
O=C(O)Cn1cc(Br)ccc1=O	239 to 241 °C
O=C(NCc1ccco1)c1cccc(CCl)c1	74 to 76 °C
NC(=S)Nc1cc(F)cc(F)c1	149 to 151 °C
O=c1[nH][nH]c2ncccc12	260 to 262 °C
O=c1[nH]c(-c2ccncc2)no1	259 to 261 °C
COc1ccc(C(=O)O)cc1S(=O)(=O)N1CCCCCC1	190 to 194 °C
COc1ccccc1NS(=O)(=O)c1ccc2oc(S)nc2c1	109 to 113 °C
Nc1ccc(S(=O)(=O)NC2CC2)cc1	145 to 147 °C
O=C(O)c1cc(Cl)c2c(c1)OCO2	239 to 241 °C
CC(=O)Nc1ccc(O)c(S(=O)(=O)Cl)c1	164 to 166 °C
O=C(O)C1CCc2cn[nH]c2C1 (centres undefined)	234 to 236 °C
C=Cc1nc2sc3c(c2c(=O)[nH]1)CCCC3	209 to 211 °C
O=c1[nH]cnc2ccsc12	219 to 221 °C
O=c1[nH]c(CNCc2ccccc2)nc2ccccc12	139 to 141 °C
Cc1noc(C)c1S(=O)(=O)N1CCC(C(=O)O)CC1	210 to 215 °C
COC(=O)c1cc(C(=O)OC)cc(S(=O)(=O)Cl)c1	105 to 107 °C
O=C(O)CCOc1ccccc1F	112 to 114 °C
NC(=S)CN1C(=O)CCC1=O	156 to 158 °C
CC(C)S(=O)(=O)Nc1ccc(C(=O)O)cc1	179 to 181 °C
NC(=O)C1CCCO1 (centres undefined)	76 to 78 °C
CN(C)S(=O)(=O)c1ccc(Cl)c(C(=O)NCCCCCC(=O)O)c1	84 to 86 °C
Fc1ccc(-c2nc(CCl)co2)cc1F	59 to 61 °C
N#CC1(N)CCN(Cc2ccccc2)CC1	67 to 69 °C
CCN(CC)C(=O)c1ccc(N)cc1	118 to 120 °C
COC(=O)c1ccc2c(c1)CCN2	74 to 76 °C

====

melting point overview

molecule	melting point
CN1CCN(S(=O)(=O)c2ccc(Cl)c(N)c2)CC1	103 to 107 °C
COc1ccc(F)cc1C(C)N (stereo not given)	74 to 76 °C
C=CCSc1nnc(N)s1	119 to 121 °C
NC(=O)c1ccc(N2CCCCC2)c(N)c1	168 to 170 °C
O=c1[nH]cnc2scc(-c3ccc(F)cc3)c12	231 to 233 °C
Cc1c(Cl)nn2c(C(F)(F)F)nnc2c1C	93 to 95 °C
CC(C)c1ccccc1Oc1ccccc1C(=O)O	133 to 135 °C
CC(=O)Nc1cccc(I)c1	123 to 125 °C
O=C(CCN1CCOCC1)c1ccc2ccccc2c1	67 to 69 °C
NC(=S)Cc1ccccc1	84 to 86 °C
O=C(O)C1CC(=O)N(c2ccc(Br)cc2)C1 (stereo not given)	173 to 175 °C
O=C1CCc2c(F)cccc21	71 to 73 °C
O=C(O)c1nc(OCC(F)(F)F)ccc1Cl	85 to 87 °C
Cc1cc(C(=O)O)nn1C(C)C1CC1 (stereo not given)	130 to 132 °C
COc1nc(Cl)nc(Cl)n1	89 to 91 °C
CC(C)c1ncc(Cl)c(C(=O)O)n1	129 to 131 °C
Nc1cccc(Oc2cnccn2)c1	89 to 91 °C
O=C(O)CSc1ncnc2scc(-c3ccccc3)c12	186 to 188 °C
NCc1csc(CNC(=O)c2ccccc2)n1	84 to 86 °C
O=S(=O)(c1ccc(F)cc1)N1CCCNCC1	180 to 182 °C
NNc1cc(C(F)(F)F)nc(-c2ccccn2)n1	169 to 171 °C
CN1CCN(C(=O)c2cc(N)ccn2)CC1	133 to 135 °C
O=C(O)c1cc2ccccc2c(Nc2ccccc2F)n1	224 to 226 °C
O=C(O)C(Oc1ccc(Br)cc1Cl)c1ccccc1 (stereo not given)	135 to 137 °C
NC(=O)c1cccc2c1CCCN2	172 to 174 °C
CN1CCN(CCNCc2ccc(Br)cc2F)CC1	45 to 47 °C
O=C(O)c1cccnc1Nc1cc(F)ccc1F	248 to 250 °C
CC(C)OCCS(=O)(=O)NCC(=O)O	63 to 65 °C
NCc1noc(-c2ccccc2)n1	115 to 117 °C
Nc1ccc(N2CCN(S(=O)(=O)C(F)F)CC2)cc1	110 to 112 °C
COCCC(NC(C)=O)C(=O)O (stereo not given)	152 to 154 °C
CCCCC1NCCNC1=O (stereo not given)	67 to 69 °C
CCOC(=O)c1cc(N)[nH]n1	118 to 120 °C
CC(=O)NCc1ccc(C(=O)O)o1	171 to 173 °C
CNCC(=O)N1CCN(C(=O)OC(C)(C)C)CC1	64 to 66 °C
CC1CCC(NC(=O)CCl)CC1 (stereo not given)	152 to 155 °C
CC(C)C[C@H](NC(=O)OC(C)(C)C)C(=O)O	87 to 89 °C
Cc1nc2ccccc2c(=O)n1CC(=O)O	239 to 241 °C
O=C(O)C1CC1c1ccc(OCc2ccccc2)cc1 (stereo not given)	147 to 149 °C
CNS(=O)(=O)c1cc(C(=O)O)c(C)o1	154 to 156 °C

====

melting point overview
measure.name: melting point

compound	result
O=C1CCc2c(F)cc(F)cc21	95 to 97 °C
O=[N+]([O-])c1ccc(S(=O)(=O)C(F)(F)F)cc1	81 to 83 °C
COc1cc(OC)cc(C(=O)NCC(=O)O)c1	91 to 93 °C
CC(C)c1c(C(=O)O)cnc2ncnn12	207 to 209 °C
CCCC(CN)C(=O)O (stereo not drawn)	219 to 221 °C
CSCCC(NS(=O)(=O)c1ccc2c(c1)OCCO2)C(=O)O (stereo not drawn)	93 to 96 °C
Cc1nnc(N2CCC(=O)CC2)s1	95 to 97 °C
N#Cc1c[nH]c2ccc(Br)cc2c1=O	359 to 361 °C
Nc1ccc(NC(=O)CN2CCCCCC2)cc1	82 to 84 °C
CCc1nc(N)sc1C(=O)OC	181 to 183 °C
O=C(O)c1ccc([N+](=O)[O-])cc1I	139 to 141 °C
CCCc1nnc(S)n1CC(=O)O	226 to 228 °C
O=C(O)c1ccn(Cc2ccccc2)c1	150 to 152 °C
Cc1ccc(Cl)c(OC(C)C(=O)O)c1 (stereo not drawn)	137 to 139 °C
O=C(NC1CCCC1)c1ccccc1O	75 to 77 °C
CC(C)(C)OC(=O)N1CCN(C(=O)C2CCCNC2)CC1 (stereo not drawn)	119 to 121 °C
COc1ccc2nc(O)c(C(=O)O)cc2c1	309 to 311 °C
O=C(O)CCNC(=O)c1ccc2[nH]nnc2c1	229 to 231 °C
CC(=O)c1ccc(N2CCCC2)cc1O	120 to 122 °C
CCOC(=O)c1c[nH]n(CC(=O)O)c1=N	195 to 197 °C
CC(=O)Nc1ccc(Br)cc1[N+](=O)[O-]	104 to 106 °C
CC(C)(C)OC(=O)N1CCc2c(sc(N)c2C#N)C1	202 to 204 °C
CC(C)(C)OC(=O)N[C@@H]1CCCCC[C@H]1N	72 to 74 °C
CC(C)(C)c1cc(N)n(-c2ncccn2)n1	194 to 196 °C
c1ccc2[nH]c(Cc3nc4ccccc4s3)nc2c1	194 to 196 °C
COCCCS(N)(=O)=O	41 to 43 °C
CC(C)c1cccc(-c2ccc(C(=O)O)o2)c1	84 to 86 °C
Cc1ccc2c(CCl)cc(=O)oc2c1	170 to 172 °C
C#CCOc1cccc(S(C)(=O)=O)c1	89 to 91 °C
O=C(c1c(Cl)cccc1Cl)N1CCNCC1	149 to 151 °C
O=C1NC(=O)N(c2ccc3c(c2)OCO3)C1=O	195 to 197 °C
O=C(O)c1cc2cc(F)ccc2oc1=O	185 to 187 °C
Cc1ccc(N2CCCC2)c(C#N)c1	42 to 44 °C
Cc1nc2c(F)cccc2c(Cl)c1C(C)C	47 to 49 °C
NCCS(=O)(=O)c1ccc(Br)cc1	87 to 89 °C
O=C(O)CCNC(=O)c1ccc(F)cc1Cl	141 to 143 °C
CC(=O)c1c(C)nn(-c2ccccc2)c1C	60 to 62 °C
COc1ccc(NC(=O)c2ccc(C(=O)O)s2)cc1	247 to 249 °C
CN(C)c1ccc(-c2nc3ccccc3s2)cc1	171 to 173 °C
NS(=O)(=O)c1cccc(N2CC(C(=O)O)CC2=O)c1 (stereo not drawn)	168 to 170 °C
CC(C)NC(=O)NN	77 to 79 °C
O=C(O)c1cccc(S(=O)(=O)Nc2ccc(Br)cc2)c1	241 to 243 °C
CCCS(=O)(=O)Nc1ccc(C(=O)O)cc1	187 to 189 °C
O=C1c2ccccc2-c2n[nH]c3cccc1c23	236 to 238 °C
Cc1cc2ncn(Cc3ccc(F)cc3)c2cc1C	135 to 137 °C
CC(Sc1ncccn1)C(=O)O (stereo not drawn)	135 to 137 °C
CC1(c2cccc(Cl)c2)NC(=O)NC1=O (stereo not drawn)	200 to 202 °C
NS(=O)(=O)N1CCCc2ccccc21	125 to 127 °C
